Tested on: A498 renal
Experiment: NCI tumour cell line growth inhibition, 48 h
Let's look at some compounds and their measured TGI.

compound	tested on	measured parameter	reading
CN(C)C=Nc1c(Br)cc(Br)c2nonc12	A498 renal	TGI	> 100 µM
O=C1NCC2(CCNCC2)N1	A498 renal	TGI	> 100 µM
COc1cc(S(=O)(=O)Nc2ccc(-c3csc(/N=C\C=C\c4ccccc4)n3)cc2)ccc1Cl	A498 renal	TGI	50.5 µM
Cc1n(-c2ccccc2)c2c([n+]1Cc1ccc([N+](=O)[O-])cc1)C(=O)c1ccccc1C2=O	A498 renal	TGI	25.5 µM

-- ask Record request: TGI value, item CCOC(=O)c1nc2cc(C(F)(F)F)ccc2nc1Oc1ccc(C(=O)OC)cc1
-- reply > 100 µM

-- ask Record request: TGI value, item COc1cc(C2C(C(=O)OCc3ccccc3)=C(C)NC(C)=C2C(=O)OCc2ccccc2)cc(OC)c1OC
-- reply > 100 µM

-- ask Record request: TGI value, item O=[N+]([O-])c1ccc(NN=C2c3ccccc3Cc3ccccc32)c([N+](=O)[O-])c1
-- reply > 100 µM

-- ask Record request: TGI value, item NC(=O)OCC(COc1ccc(Cl)cc1)OC(=O)c1cc([N+](=O)[O-])cc([N+](=O)[O-])c1 (stereo not given)
-- reply > 100 µM

-- ask Record request: TGI value, item Nc1ncnc2c1c(C(=O)NO)cn2C1OC(CO)C(O)C1O (stereo not given)
-- reply 6.9 µM

-- ask Record request: TGI value, item CCCCC1=CC1(C#N)[N+](=O)[O-] (stereo not given)
-- reply > 100 µM

----------
Let's look at some molecules and their measured TGI.
Tested on: SF-539 CNS
Assay: NCI tumour cell line growth inhibition, 48 h

Please review the following examples before continuing.
molecule	TGI
COCO[C@@H]1CC2C=Nc3cc(OCc4ccccc4)c(OC)cc3C(=O)N2C1 (stereo not given in full)	0.815 µM
O=C1CSC(c2ccccc2[N+](=O)[O-])N1c1ccc(-n2c(-c3ccccc3)nc3ccccc3c2=O)cc1 (stereo not given)	> 100 µM
CCOC(=O)NC(C(C(=O)OCC)C(=O)OCC)(C(F)(F)F)C(F)(F)F	> 100 µM
CCCCCCCSCC1OC(n2cnc3c(N)ncnc32)C(O)C1O (stereo not given)	> 100 µM
COc1ccc(C(=O)C(CC2C(=O)CC(C)(C)C(C(=O)C(=O)Nc3c(C)cccc3C)C2=O)c2ccc(OC)cc2)cc1 (stereo not given)	> 100 µM
N#CC1C(=O)NC2=C(CCOc3c2ccc2ccccc32)C1c1ccc(F)cc1 (stereo not given)	> 100 µM
ClCCCC1COc2ccccc2O1 (stereo not given)	> 100 µM
C=CCOCn1ccc(NC(=O)c2ccccc2)nc1=O	> 100 µM

-- ask Record request: TGI value, item C=CCCC(O)c1ccc(CCCCCCCCCCC)o1 (stereo not given)
-- reply 34.3 µM

-- ask Record request: TGI value, item Nc1ccn(CC(CO)CC(c2ccccc2)P(=O)(O)O)c(=O)n1 (stereo not given)
-- reply > 100 µM

----------
Test system: BT-549 breast
Test: NCI tumour cell line growth inhibition, 48 h; in the data active means GI50 below about 0.43 µM; inactive means the rest
Assign a class; possible classes are true (1) for active, false (0) for inactive

-- ask What call does the record list for c1ccc(C2=NN[C@H](c3cn(-c4ccccc4)nc3-c3ccccc3)C2)cc1 ?
-- reply false (0)

-- ask What call does the record list for C=CCCC(O)c1ccc(CCCCCCCCCCC)o1 (centres undefined) ?
-- reply false (0)

-- ask What call does the record list for Cc1nc2sc(C(=O)Nc3cccc(Cl)c3C)c(N)c2cc1C(=O)c1ccccc1 ?
-- reply true (1)

-- ask What call does the record list for CCNC(=O)c1ccc2c(c1)nc(-c1ccc(Cl)cc1)n2-c1cc(C(C)(C)C)[nH]n1 ?
-- reply false (0)

-- ask What call does the record list for Cc1ccc(C(CC(=O)c2ccccc2)C(C(=O)c2ccccc2)C(c2ccc(C)cc2)C2C(=O)NC(=S)NC2=O)cc1 (centres undefined) ?
-- reply false (0)

-- ask What call does the record list for O=C(OC(CNc1c(C(=O)c2ccccc2)c(=O)n(Cc2ccccc2)c(=O)n1Cc1ccccc1)CN1CCCCC1)c1ccccc1 (centres undefined) ?
-- reply false (0)

-- ask What call does the record list for COc1cc(C2C(C(=O)OCc3ccccc3)=C(C)NC(C)=C2C(=O)OCc2ccccc2)cc(OC)c1OC ?
-- reply false (0)

-- ask What call does the record list for CS(=O)(=O)c1ccc(-c2[nH]c3ccc(F)cc3c2/C=N/NC(N)=S)cc1 ?
-- reply false (0)

-- ask What call does the record list for O=C(Nc1ccc(O)c(NS(=O)(=O)c2ccc(F)cc2)c1)c1ccc(-c2ccccc2)cc1 ?
-- reply false (0)

----------
Tested on: M14 melanoma
Experiment: NCI tumour cell line growth inhibition, 48 h
measured parameter: TGI

Please review the following examples before continuing.
compound	tested on	TGI
Cc1cccc2c(N)c3cccc(C(=O)NCCN4CCOCC4)c3nc12	M14 melanoma	7.33 µM
CC1=C2c3ccccc3N(S(=O)(=O)c3ccccc3)[C@H]2[C@H](C(=O)N2C3CC4CC[C@@]3(CS2(=O)=O)C4(C)C)CC1 (stereo partly specified)	M14 melanoma	> 100 µM
CCOC(=O)/C(=C/c1ccc(Cl)cc1)N(CC)CC	M14 melanoma	> 100 µM
O=[N+]([O-])c1cc([N+](=O)[O-])c(C(Cl)C(Cl)c2ccccc2)cc1C(Cl)C(Cl)c1ccccc1 (stereo unspecified)	M14 melanoma	2.93 µM
CNC(=O)OCc1cc2ccncc2c2c1[nH]c1ccccc12	M14 melanoma	> 100 µM
N#CC(C(=O)C(=O)Nc1ccc(Cl)c(Cl)c1)c1ccc(Cl)cc1 (stereo unspecified)	M14 melanoma	> 100 µM

-- ask Record request: TGI value, item CN(C)C(=O)C(F)(F)C(c1ccc(C(F)(F)F)cc1)C1C(=O)N(C)C(=O)N(C)C1=O (stereo unspecified)
-- reply > 100 µM

-- ask Record request: TGI value, item COc1ccc(OC)c(-c2cc(C(=O)O)c3cc4ccccc4cc3n2)c1
-- reply > 100 µM

-- ask Record request: TGI value, item Cc1[nH]c2ccccc2c1C1=CC(=O)C=CC1=O
-- reply 27.7 µM

-- ask Record request: TGI value, item CCCCCCCCCCCCCC(=O)OC1C(CO)OC(=O)C1O (stereo unspecified)
-- reply > 100 µM

-- ask Record request: TGI value, item C[C@]12CC/C(=N\OC(=O)Nc3ccccc3)C=C1CC[C@@H]1C2CC[C@@]2(C)C1CC[C@@H]2OC(=O)Nc1ccccc1 (stereo partly specified)
-- reply > 100 µM

----------
Test system: MALME-3M melanoma
Experiment: NCI tumour cell line growth inhibition, 48 h
measured parameter: TGI

Please review the following examples before continuing.
molecule	TGI
O=C(NCCCCCCNC(=O)NC1OCC(O)C(O)C1O)NC1OCC(O)C(O)C1O (stereo not given)	> 100 µM
COc1ccc2c([nH]c3cc(O)c(C)cc32)c1CC=C(C)C	> 25 µM
N#Cc1c(-c2ccccc2)c(C#N)c(=S)n(C2OCC(O)C(O)C2O)c1N (stereo not given)	> 100 µM
COC(=O)C1=C(OC(=O)/C(=C/c2c(F)cccc2F)c2ccccc2)C(C(=O)OC)[C@@]2(O)[C@@H](C(=O)OC)[C@H](C)C[C@@H]1[C@@H]2C(=O)OC (stereo not given in full)	> 100 µM

Please examine the following record next.
-- ask Record request: TGI value, item CC1OC(n2cc(I)c(=O)[nH]c2=O)C=CC1=O (stereo not given)
-- reply 28.5 µM

----------
System: EKVX NSCLC
Assay: NCI tumour cell line growth inhibition, 48 h
measured parameter: GI50

molecule	GI50
O=c1cc(-c2ccccc2)nc2cc(-c3ccco3)[nH]n12	15.6 µM
N#C/C(=C\c1ccc([N+](=O)[O-])s1)c1nc2cc(Br)ccc2s1	0.246 µM
COc1cc([N+](=O)[O-])c(OC)cc1-c1nc2n(c1/C(N)=N/C(=N)N)CCS2	40.3 µM

-- ask Record request: GI50 value, item CC(=O)Nc1ccc(S(=O)(=O)c2ccc(NC(C)=O)cc2)cc1
-- reply 64 µM

-- ask Record request: GI50 value, item Cc1[nH]c2ccccc2c1C1=CC(=O)C=CC1=O
-- reply 17.7 µM

-- ask Record request: GI50 value, item COC(=O)c1cc(NC(=O)CN(CCN(CC(=O)O)CC(=O)Nc2ccc(O)c(C(=O)OC)c2)CC(=O)O)ccc1O
-- reply > 100 µM

----------
Tested on: PC-3 prostate
Experiment: NCI tumour cell line growth inhibition, 48 h
measured parameter: TGI

compound	TGI
Cc1ccc2nc(CC(=O)c3ccc4ccccc4c3)c(=O)[nH]c2c1	> 100 µM

-- ask Record request: TGI value, item C(=C\c1nc2ccccc2s1)/c1ccc(N2CCOCC2)s1
-- reply > 100 µM

-- ask Record request: TGI value, item Nc1nc(NCC2(CO)CC(CCc3ccccc3)C2)cc(=O)[nH]1 (stereo not given)
-- reply > 100 µM

-- ask Record request: TGI value, item CC(C)N(C(=O)c1ccc(NCc2cc(O)ccc2O)cc1)C(C)C
-- reply 52.3 µM

-- ask Record request: TGI value, item O=C(OC(CNc1c(C(=O)c2ccccc2)c(=O)n(Cc2ccccc2)c(=O)n1Cc1ccccc1)CN1CCCCC1)c1ccccc1 (stereo not given)
-- reply 26.4 µM

-- ask Record request: TGI value, item Cc1ccc(C(CC(=O)c2ccccc2)C(C(=O)c2ccccc2)C(c2ccc(C)cc2)C2C(=O)NC(=S)NC2=O)cc1 (stereo not given)
-- reply > 50 µM
